Numbers sourced from the supplement of paper PMC9170038.

Test system: MS2 coat protein
assay-method-text: apparent KD of MS2 coat protein; higher = weaker reporter binding
assay-setup: Eterna round: R107; input ligand: theophylline 20 uM
Listed next: entries and their corresponding apparent KD of MS2 coat protein.
Dear colleague, please return just the value in nM, with no unit written.

1. CUCGAGUUAUGAGAUACCAGACUAUAGUUUACAUGAGGAUCACCCAUGUUAUGGGUGGUGGUCCCUUGGCAGCUCAUAUGUUUAA [#08 Exclusion-TheophyllineB] = 220
2. ACAUGAGGAUCACCCAUGUACAUCACCCGACGAGGACCGGUACGGCCGCCACUCGGGUAUAUAUAUACAUCGGGUGAUUUUACGU [#22 Tryptophan A Same State] = 57.4
3. UGACAUUGCUGCGAUACCAGACAUGAGGAUCACCCAUGUACCAAGGUAAGAAAAUAACAUGUCCCUUGGCAGCGCAGCAAUGUCU [MAT - Exclusion Theophlline B - Mod of Eli - D1] = 40.2

Turning to the following sequence.
Query string: // apparent KD of MS2 coat protein lookup, key: AUACAUGAGGAUCACCCAUGUCAUACAGAAGGAGCGUCACAUAAGACAGGUAGGUCGCUGAUAAAUGGAUUAUAGUUUAUGAUUA [JR_SSArginiA_Sub016]
Result string: 29.6

----------
Test system: K4 kissing-loop RNA reporter;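 further: bound reporter read as fluorescence of individual clusters on recovered sequencing chips by microscopy, with normalized cluster intensities fitted with a binding model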
assay-method-text: apparent KD of K4 kissing-loop reporter; higher = weaker reporter binding
assay-setup: Eterna round: R107; input ligand: FMN 200 uM
readout-label: apparent KD of K4 kissing-loop reporter (nM)
Dear colleague, please return just the value in nM, with no unit written.

Answered cases to consult:
1. AAGGUUCGUGGAAGGAGCGCCCGUGCGACUCGUUCAGUAAGUGAAGUCCGAGUGAUGUUCGGGCAGGUAGGUCGCCACGGGCAAA [Usontezaon] = 196
2. GAAGUACAGGCGGCCGCCACUAGUGAUGUUAGUGAUAAAAGAUAUAGUAAAUAUCGGCAUGUAGAUAGGACCGGGCCUGAUGGAG [ggbgmullin] = 311
3. CUCGUGGGUUUGGGAGGGCUUGUGGGAAGAUAGGAUAUCUAGGGAGGGAGAAGGAUCUAUAGAAUAUAGUGAUGUUAUAUAUGGG [SSFMNA.aA] = 118
4. UGUCAUUGGUCUGAUACCAGUUGAUGACGAAUACGUCAACUGGAGUGAUGUUCCUAAAACAACCCUUGGCAGCAGACCGAUGACU [TheoBS 1 #SwitchBubble #StaticStem] = 788
5. AGAGUUAUAUGAGGAUAUGAGAUAGUUAAUGAGUGAGUUAUAGUGUAGUUUGGUUAGUGAUGUUAUUUAGAAGGCGUGAGUGAUG [reefmullin] = 133

Query string: // apparent KD of K4 kissing-loop reporter lookup, key: CCAUUCAUCAGAAGGAGCGUCAAGUGAUGCUAUCCAGUGAUGUUGGAUAGCACGGAACAGUGACAGGUAGGUCGCUGAUGAGAGC [Arg B SS t8]
Result string: 121

Query string: // apparent KD of K4 kissing-loop reporter lookup, key: UCCUAGGCUCGAAAGAGCCUAGGAUUAUCUCAGGAUAUCCGGAAACGGAGAAGGGAGAAACUAGUGAUGUUAGGGAUUCCCUAUU
Result string: 574

Query string: // apparent KD of K4 kissing-loop reporter lookup, key: UGACAUUGCUCAGAUACCAGACUUGAGGAACACCCAAGUGCCAAAUACGUACAAAUAAAAGUCCCUUGGCAGCUGAGCAAUGUCU [TheoBX 12]
Result string: 58.3

----------
System: MS2 coat protein
assay-method-text: apparent KD of MS2 coat protein, switch OFF state (with FMN for OFF switches, without FMN for ON switches); designed switch direction (-1 OFF switch, 1 ON switch): -1; higher = weaker reporter binding
assay-setup: FMN input: 0 or 200 uM; Eterna round: R93 (includes R88 designs)
I'd appreciate it if you could label each record using apparent KD of MS2 coat protein and these ranges: one (below 20 nM), two (20 nM to below 50 nM), three (50 nM or more)

Query string: Which apparent KD of MS2 coat protein category applies to CUCAAGUAAGGAUAUAGAAGAAAAGAAGAGAAAGAAAAGAACUAGAAGGUACAUGAGGAUCACCCAUGUAAGAA [EteRNA is fun!] here?
Result string: two

Query string: Which apparent KD of MS2 coat protein category applies to AAAAAGGAAGGAUAUACGAACAUGUCAAAAGACGUGAAGGGACAUGAGGAUCACCCAUGUAGAAGGUUCAAAAA [JL Half Open 24] here?
Result string: one

Query string: Which apparent KD of MS2 coat protein category applies to AAAAACAGAGGAUAUACAAAAUUAUGACGAAAGUCAUAAAAACAUGAGGAUCACCCAUGUAGAAGGCUGGAAAA [Mat - Mod of Meechl] here?
Result string: two

Query string: Which apparent KD of MS2 coat protein category applies to UCCGGACAUGAGGAUCACCCAUGUGAGGAUAUAUAAAGUGGGACUAGAAACAGUCCCAAUAGAAGGCACAUGAC [Esarbiorar] here?
Result string: one

Query string: Which apparent KD of MS2 coat protein category applies to AAAAAACAUGAGGAUCACCCAUGUGAGGAUAUUAAAAAUAAGAAGGCAUAAAAAAAAAUAAGAAGGCACAUGAA [Meechl MS2 Ex1] here?
Result string: two

Query string: Which apparent KD of MS2 coat protein category applies to AGCUAGUCAGGAUAUACGAAAAUGUCAGAAGACGUAAGGGAACAUGAGGAUCACCCAUGUAGAAGGGACUAGCA [Diamond 41] here?
Result string: three

----------
System: MS2 coat protein
assay-method-text: apparent KD of MS2 coat protein; designed switch direction (-1 OFF switch, 1 ON switch): -1; higher = weaker reporter binding
assay-setup: input ligand: FMN 200 uM
readout-label: apparent KD of MS2 coat protein

Answered cases to consult:
1) GAUCAUGCAGGAUAUACAUGGAACAUUAAAUCAUGAAUUCUACAUGAGGAUCACCCAUGUAGAAGGGCAUGAUC [Omei Ex2 A17] (Eterna round: R97, puzzle: Exclusion 2) = 169 nM
2) AGCUAGAUAGGAUAUGCCCGGGAUAACAUGAGGAUCACCCAUGUGACCGAAUCAUGUCCAGCAGAAGGGUUUGGGA [Mod of ViennaUCT 9 - Jieux - Exclusion 5] (Eterna round: R97, puzzle: Exclusion 5) = 34.7 nM

Query string: // apparent KD of MS2 coat protein lookup, key: GAUCUACAUGAGGAUCACCCAUGUGAGGAUAUUUAGACCAACGCUCUAGCUGUUGAUGGAAGAAGGCACCACCG [Eternabot (L2) Solution 56] (Eterna round: R97, puzzle: Exclusion 1)
Result string: 25.4 nM

----------
Tested on: MS2 coat protein
assay-method-text: apparent KD of MS2 coat protein; higher = weaker reporter binding
assay-setup: Eterna round: R107; input ligand: tryptophan 2.4 mM
apparent KD of MS2 coat protein of 30 nM or higher: 1.0. Under 30 nM: 0.0.

1) ACCUACACGGAGACGUGUAGGAGUAAUGAUACCAGCAUGGAGACAUGCCCUUGGCAGCGUUACAUGAGGAUCACCCAUGUAGUGC [ETHA #5] = 0.0
2) UGGAGUAGGGUAAAUAGGAUAAGUACAGAAGGAGCGCGAAUAAACGCAGGUAGGUCGCUGGAACACAUGAGGAUCACCCAUGUUG [Same State Arginine A GF 24] = 0.0
3) GUGAGGUUUGAUGAUACCAGAUGUGGUGGGAACAUGAGGAUCACCCAUGUUGUGAAACAGGUCCCUUGGCAGCAUGAGAGAGCUU [TheoB-ms2@32] = 1.0
4) UAGACGGCCGGAAGGAGCGGUACAUGAGGAUCACCCAUGUAUCUCUGGGCAUCCGUAGAGUGCCAGGUAGGUCGCCGGUUGCGGG [XArg-B22] = 0.0

Moving on to another sequence below.
Query string: I'd appreciate it if you could say whether AUUGGGUUAUCAGAUACCAGACUAUUCUAGACAUGAGGAUCACCCAUGUAUUGGGUUUUCGUCCCUUGGCAGCUGUUAAGUUUAA [JR_SSTheophyB_Sub005] has apparent KD of MS2 coat protein at least equal to 30 nM.
Result string: 1.0

----------
Tested on: MS2 coat protein
assay-method-text: apparent KD of MS2 coat protein; higher = weaker reporter binding
assay-setup: Eterna round: R107; input ligand: arginine 13.2 mM
readout-label: apparent KD of MS2 coat protein (µM)
Dear colleague, please return just the value in µM, with no unit written.

Answered cases to consult:
1. UAUUAUAACCGAAGGAGCGGGAAAGAUGAUUUUUAAUAUUAACAUGAGGAUCACCCAUGUACCCAGGUAGGUCGCGGAUAUUAUU [Default title] = 0.0238
2. UGCCGAGACGUGGAUUACCCGUGUACCGAAGGAGCGCCCGAAAGGGCAGGUAGGUCGCGGAGGACAUGAGGAUCACCCAUGUUUA = 0.202
3. AGCCCGUGAGCGGCCGCCACUGGAGGCUUUGCGCGACAUGAGGAUCACCCAUGUGUGCCCGGCGUUAGGACCGGGUUCACGUGGU [#1 Same State - Tryptophan B Attempt #19 (HarryS)] = 0.0594

Query string: // apparent KD of MS2 coat protein lookup, key: CGGUUUGUGAUGGAUACCAGCAGUGUGGCUGUUUAUCCUGACAUGAGGAUCACCCAUGUGUGCCCUUGGCAGCUGUUGUGGGCUG [8.aC]
Result string: 0.0641
